# experimental protocol: Exposure of DTE- or DTT-based dimers to glutathione, release of dimer phosphodiester
# Assay type: physicochemical
# condition details: 1M TRIS hydrochloride buffer with glutathione (GSH), pH 7.3, 500:1/Prodrug:GSH, pH 7.30, 1M TRIS hydrochloride buffer
quantity name: half-life

molecule="C#CCO[C@@H]1CSSC[C@H]1OP(=O)(OC[C@H]1O[C@@H](n2ccc(=O)[nH]c2=O)[C@H](OC)[C@@H]1OC(=O)CCC(C)=O)O[C@H]1[C@@H](OC)[C@H](n2ccc(=O)[nH]c2=O)O[C@@H]1COC(c1ccccc1)(c1ccc(OC)cc1)c1ccc(OC)cc1 (stereo partly shown)" measured="~4 h"
